species: Homo sapiens; test: Ratio of Ki for human adenosine A1 receptor to Ki for human adenosine A2A receptor
assayMetric: Ratio Ki

1) Nc1nc2c(cnn2CCN2CCN(c3ccc(F)cc3F)CC2)c2nn(Cc3cccc(Cl)c3)c(=O)n12    60
2) C=Cn1ncc2c1nc(N)n1c(=O)n(Cc3cccc(Cl)c3)nc21    356
3) Nc1nc2c(cnn2CCN2CCC(N3CCOCC3)CC2)c2nn(Cc3cccc(Cl)c3)c(=O)n12    224
4) Nc1nc2c(c3nn(Cc4ccccc4)c(=O)n13)CCc1ccccc1-2    43

---

biological target: Adenosine receptor A2a (Homo sapiens, UniProt P29274); assay: Antagonist activity against human adenosine A2A receptor
Sequence (P29274 whole entry): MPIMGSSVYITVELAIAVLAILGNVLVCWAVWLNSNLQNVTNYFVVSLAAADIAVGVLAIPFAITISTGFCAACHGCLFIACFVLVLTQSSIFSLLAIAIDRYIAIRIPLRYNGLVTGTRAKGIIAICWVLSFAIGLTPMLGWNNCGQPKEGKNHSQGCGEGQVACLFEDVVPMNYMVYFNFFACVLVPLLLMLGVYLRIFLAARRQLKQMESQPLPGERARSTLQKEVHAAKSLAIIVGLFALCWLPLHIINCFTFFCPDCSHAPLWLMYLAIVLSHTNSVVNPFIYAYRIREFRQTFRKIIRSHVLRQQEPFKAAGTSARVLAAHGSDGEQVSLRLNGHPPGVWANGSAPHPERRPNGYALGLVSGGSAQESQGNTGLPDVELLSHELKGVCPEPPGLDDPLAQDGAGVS
assayMetric: log10 Ki (log10 of the value in nM)

1. CS(=O)(=O)N1CCN(CCn2ncc3c2nc(N)n2c(=O)n(Cc4ccccc4)nc32)CC1    0.95
2. Nc1nc2c(cnn2CCN2CCC3(CC2)OCCO3)c2nn(Cc3ccccc3)c(=O)n12    0.94
3. Nc1nc(-c2cccnc2)cc2nn(Cc3ccccc3)c(=O)n12    2.90
4. Nc1nc2c(cnn2CCN2CCN(c3cnccn3)CC2)c2nn(Cc3cccc(Cl)c3)c(=O)n12    1.11
5. CN(C)CCn1ncc2c1nc(N)n1c(=O)n(Cc3cccc(Cl)c3)nc21    0.72
6. Nc1nc2c(cnn2CCN2CCOCC2)c2nn(Cc3ccccc3)c(=O)n12    0.95

Origin of measurements: ChEMBL document CHEMBL1759931
